SYSTEM TESTED: Peptidyl-prolyl cis-trans isomerase NIMA-interacting 1 (Homo sapiens)
Sequence (Q13526 whole entry): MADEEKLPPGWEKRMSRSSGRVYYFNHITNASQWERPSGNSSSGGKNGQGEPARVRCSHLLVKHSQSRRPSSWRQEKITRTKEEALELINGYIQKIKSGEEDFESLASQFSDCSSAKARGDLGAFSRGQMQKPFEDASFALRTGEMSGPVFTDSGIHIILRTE
MEASUREMENT NOTES: Inhibition of recombinant N-terminal His6-tagged human Pin1 at 10 uM using Suc-Ala-Glu-cis-Pro-Phe-4-nitroanilide as substrate preincubated for 30 mins followed by substrate addition measured for 90 secs
PARAMETER MEASURED: inhibition (%)

See these solved cases before continuing.
TEST SMILES	SYSTEM TESTED	UNIT TAG	inhibition
C[C@H]1[C@H](C)CC[C@]2(C)CC[C@]3(C)C(=CC(=O)[C@@H]4[C@@]5(C)C/C(=C\C(=O)O)C(=O)[C@](C)(C(=O)N6CCOCC6)[C@@H]5CC[C@]43C)[C@H]12	Peptidyl-prolyl cis-trans isomerase NIMA-interacting 1 (Homo sapiens)	%	82
COc1ccccc1/C=C1\C[C@]2(C)[C@H]3C(=O)C=C4[C@@H]5[C@@H](C)[C@H](C)CC[C@]5(C)CC[C@@]4(C)[C@]3(C)CC[C@H]2[C@@](C)(C(=O)OCc2ccccc2)C1=O	Peptidyl-prolyl cis-trans isomerase NIMA-interacting 1 (Homo sapiens)	%	57
C[C@H]1[C@H](C)CC[C@]2(C)CC[C@]3(C)C(=CC(=O)[C@@H]4[C@@]5(C)CC[C@@H](OC(=O)CN(CCO)CCO)[C@](C)(C(=O)O)[C@@H]5CC[C@]43C)[C@H]12	Peptidyl-prolyl cis-trans isomerase NIMA-interacting 1 (Homo sapiens)	%	59

A: C[C@H]1[C@H](C)CC[C@]2(C)CC[C@]3(C)C(=CC(=O)[C@@H]4[C@@]5(C)CC[C@@H](OC(=O)COc6ccc(C(=O)/C=C/c7ccccc7)cc6)[C@](C)(C(=O)O)[C@@H]5CC[C@]43C)[C@H]12
B: C[C@H]1[C@H](C)CC[C@]2(C)CC[C@]3(C)C(=CC(=O)[C@@H]4[C@@]5(C)Cc6c(C(=O)O)noc6[C@](C)(C(=O)OCc6ccccc6)[C@@H]5CC[C@]43C)[C@H]12
stdin: For A and B , which recorded inhibition is lower? Please identify the chosen entry by its label.
stdout: B
(B: 29%, A: 95%)
